The values you see were collected from PubChem BioAssay (NCI).

test system: HT29 colon; experiment: NCI tumour cell line growth inhibition, 48 h
For each of the compounds below, state its GI50.

Prompt line: // returns reported GI50 for input `CN(C)CC[PH+](c1ccccc1)c1ccccc1.CN(C)CC[PH+](c1ccccc1)c1ccccc1.[Cl-].[Pd+2]`
Response line: > 100 µM

Prompt line: # GI50 lookup, item `COc1ccc(-c2nn(-c3ccc(NC(=O)c4ccc(Cl)c(Cl)c4)cc3)cc2-c2ccncc2)cc1Cl`
Response line: 1.21 µM

Prompt line: Could you tell me which GI50 is on file for `Cc1ccc(NC(=O)CC2CC2)cc1-c1ccc(C(=O)NCC2CC2)cc1` ?
Response line: > 25 µM

Prompt line: GI50 lookup needed for CCC(/C=C/C1OC(=O)C=CC1C)=C\C(C)C/C=C/C(C)=C/C(C)C(=O)C(C)C(O)C(C)C/C(C)=C/C(=O)O (configuration not stated) , thanks.
Response line: 4.95 µM

Prompt line: // query GI50 value for entry `COc1ccc2[nH]cc(C3(c4c[nH]c5ccc(OC)cc45)C(=O)Nc4ccc(F)cc43)c2c1`
Response line: 2.44 µM

Prompt line: Return reported GI50; argument: `COc1ccc2c(c1)C(=O)c1c-2c(N2CCN(C(=O)CNCCNCCO)CC2)nc2ccccc12`
Response line: 1.61 µM

Prompt line: Endpoint output: GI50 of `O=C(c1ccccc1)c1cc2ccccc2o1` . Value?
Response line: 76.1 µM

* * *

test system: TK-10 renal; assay: NCI tumour cell line growth inhibition, 48 h
Measure Name: TGI

Prompt line: Which TGI is listed for `CC[C@H]1[C@@H]2C=C[C@@H]3[C@H]4C/C=C\C(=O)NCCC[C@@H]5NC(=O)/C(=C(O)/C=C/[C@@H]4C[C@@H]3[C@H]2C[C@H]1C)C5=O` ?
Response line: 2.71 µM

Prompt line: Which TGI reading was recorded for the molecule `NNC(=O)c1n[nH]nc1C(=O)NN` ?
Response line: > 100 µM

Prompt line: So what does the record say about TGI for Cn1nc(C(=O)N2CC(CCl)c3c2cc(N)c2ccccc32)cc1NC(=O)Nc1cc(C(=O)N2CC(CCl)c3c2cc(N)c2ccccc32)nn1C (stereo not drawn) ?
Response line: > 100 µM

Prompt line: Quick one: TGI of `S=c1sc2c(Cl)nc(Cl)nc2n1-c1ccccc1` ?
Response line: > 100 µM

Prompt line: Please give the measured TGI for this molecule: `Oc1cccnc1[Se]`
Response line: > 100 µM

Prompt line: Requested read-out: TGI. Entry: `C=C(C)[C@@H]1CC[C@]2(C(=O)NC3CCCCC3)CC[C@]3(C)[C@H](CC[C@@H]4[C@@]5(C)CCCNC(C)(C)[C@@H]5CC[C@]43C)[C@@H]12`
Response line: 3.6 µM

Prompt line: For `Cc1ncc(C(=O)Nc2ccc(CN3CCN(C)CC3)c(C(F)(F)F)c2)cc1C#Cc1cnc(N)c2ccncc12` , what is its reported TGI?
Response line: 4.19 µM

Prompt line: Recorded TGI of `C=C(C)[C@@H]1CC[C@]2(C)[C@H](CC=C3[C@@H]4CC(C)(C)CC[C@]4(C(N)=O)CC[C@]32C)[C@@]1(C)CCC#N` , please.
Response line: > 100 µM

* * *

system: NCI-H460 lung; assay: NCI tumour cell line growth inhibition, 48 h
Measure Name: TGI

Prompt line: Which measured TGI value corresponds to `Cn1cc(NC(=O)Nc2cc(C(=O)Nc3cc(C(=O)Nc4ccc(S(=O)(=O)O)c5cc(S(=O)(=O)O)ccc45)n(C)c3)n(C)c2)cc1C(=O)Nc1cc(C(=O)Nc2ccc(S(=O)(=O)O)c3cc(S(=O)(=O)O)ccc23)n(C)c1` ?
Response line: > 100 µM

Prompt line: Dear colleague, I am looking for the recorded TGI of the following compound: CC1CN(C(=O)CN2CCC(CCCCN(C)C)CC2)c2ccccc2NC1=O (centres undefined)
Response line: > 100 µM

Prompt line: What value of TGI has been reported for the following compound? `CC[C@H]1[C@@H]2C=C[C@@H]3[C@H]4C/C=C\C(=O)NCCC[C@@H]5NC(=O)/C(=C(O)/C=C/[C@@H]4C[C@@H]3[C@H]2C[C@H]1C)C5=O`
Response line: 1.84 µM

Prompt line: Reported TGI, compound `Cn1ccc(C(=O)NCCN(CCNC(=O)c2ccn(C)c(=O)c2O)CCNC(=O)c2cccc(=O)n2O)c(O)c1=O` : ____
Response line: > 100 µM

Prompt line: I would be grateful if you could share the reported TGI for CC(CO)(CO)N1C(=O)C2C3C=CC(C3)C2C1=O (centres undefined) .
Response line: > 100 µM

Prompt line: Need TGI of `CC(C)(C)OC(=O)[C@H]1CCC(=S)N1Cc1ccccc1` , thanks.
Response line: > 100 µM

Prompt line: If you can, please state the reported TGI value of CCC(C)OC(=O)/C(Br)=C1/OC(=O)c2ccccc2-c2ccccc21 (centres undefined) .
Response line: 73.9 µM

Prompt line: What value of TGI has been reported for the following compound? `Cn1c(=O)c2c(nc(Cc3ccccc3)n2CC(=O)O)n(C)c1=O`
Response line: > 100 µM

Prompt line: # query: TGI of entry `Cc1ccc(/C=C/C(=O)c2sc(-c3nc(C)c(C(=O)/C=C/c4ccc(C)cc4)s3)nc2C)cc1`
Response line: > 100 µM
